# melting point per entry

# return recorded melting point for entry Cn1ncc(C(=O)N2CCOCC2)c1C(=O)Nc1ccn2nc(-c3cccc(F)c3)nc2c1
212 to 214 °C

# return recorded melting point for entry CCC(=O)N1CCCC2=C1CCc1cc(Cl)ccc12
115 to 117 °C

###

quantity-kind: melting point

Consider the following illustrative entries.
COc1cc(CC(=O)Nc2ccc(C3CN(C(=O)CCC(=O)O)CC3C(=O)O)cc2)ccc1NC(=O)Nc1ccccc1C (centres undefined)    184 °C
Cc1ccc(Sc2ccnc3sccc23)cc1    90 to 92 °C
O=CNC[C@H]1CN(c2ccc(N3CCOCC3)c(F)c2)C(=O)O1    44 to 47 °C
CN(C)c1nc(-c2ccc(Cl)cc2)c(CCC(=O)O)o1    189 to 190 °C
O=c1[nH][nH]c(C(F)(F)F)c1Cc1ccc(Cl)cc1    151 to 152 °C
CN1CCN(S(=O)(=O)c2ccccc2NC(=O)N[C@@H](Cc2ccc(NC(=O)c3c(Cl)cncc3Cl)cc2)C(=O)O)CC1    189 °C
CCCCCCCCCCCC(=O)Nc1ccc(O)c(C(=O)O)c1    201 to 205 °C
CCCCOc1c(NC(C)(C)CC)c(=O)c1=O    56 to 57 °C

# return recorded melting point for entry CC(=O)c1ccc(-c2cnco2)cc1
128 to 130 °C

# return recorded melting point for entry CC(=O)OC1CCC2(C)C(CCC3C2CCC2(C)C(C(=O)C=[N+]=[N-])CCC32)C1 (centres undefined)
135 to 136 °C

# return recorded melting point for entry COc1ccc(OC[C@@H](O)CNCCc2ccc(NC3SC(=O)NC3=O)cc2)cc1 (some centres undefined)
60 °C

# return recorded melting point for entry CCC(=O)c1ccc(Cl)c2nc3n(c12)CCCN3c1ccc(Cl)cc1Cl
156 to 157 °C

# return recorded melting point for entry Cc1cccc2c(=O)nc(-c3cccc(C(=O)OC(C)(C)C)n3)sc12
204 to 205 °C

# return recorded melting point for entry CCOC(=O)C(C)C(=O)Nc1cccc(S)c1 (centres undefined)
73 to 75 °C

###

quantity-kind: melting point

Consider the following illustrative entries.
CC(C)(C)OC(=O)Nc1ccc(C(=O)O)c2ccccc12    194 to 195 °C
O=Cc1ccc(S(=O)(=O)CCCl)cc1    70 to 72 °C
O=C(O)c1ccc(OCC2CCCCC2)cc1    209 to 210 °C
Cc1nc2ccc3c(c2o1)OC(CN1C2CCC1CC(O)(c1ccc4ccccc4c1)C2)CO3 (configuration not stated)    192 to 195 °C
Cc1cc(C)c2c(=O)n(CC(=O)N3CCOCC3)sc2n1    200 to 203 °C
O=c1[nH]c2ccc(-c3cccc(Cl)c3)cc2n1Cc1ccccc1    168 to 169 °C
CC1(C)CCC(C)(C)c2c(O)ccc(O)c21    114 °C
O=C(Nc1cc(-c2nc(Cc3ccccc3)c[nH]2)ccn1)c1ccccc1    110 to 112 °C

# return recorded melting point for entry COC(=O)c1ccc(Oc2nn(Cc3ccccc3)c3ccccc23)o1
89 to 91 °C

# return recorded melting point for entry O=C(CCl)N[C@@H]1CCCC[C@H]1NC(=O)CCl (relative stereo)
202 to 203 °C

# return recorded melting point for entry CCOC(=O)COc1ccc(CN2C(=O)C3(COc4cc5c(cc43)CCO5)c3ccccc32)cc1 (configuration not stated)
158 to 159 °C

# return recorded melting point for entry O=C(NCCCCOc1ccc(-n2ccnc2)cc1)c1cccc2ccccc12
157 to 159 °C

The values you see were collected from a melting point compilation (Tetko et al.; mined from patent text by program, amines drawn as free bases though some values may be those of a salt).
